pIC50: −log10 of the molar value.
// molecules with reported pIC50 on Cyclin-dependent kinase 1 (Homo sapiens, UniProt P06493), multi-publication

Give recorded pIC50 with Cyclin-dependent kinase 1 (Homo sapiens, UniProt P06493) for the following molecule: `CCN(CC)CCN(C)C(=O)c1ccc(-c2c(F)cnc3[nH]c4cnc(-c5cccnc5)cc4c23)cc1`
5.30 to 6.00

Subsequent entry: `NC1(CNC(=O)c2ccc(-c3c(F)cnc4[nH]c5cnc(-c6cccnc6)cc5c34)cc2)CC1`
6.00 to 7.00

Subsequent entry: `CN(C)[C@H]1CCN(C(=O)c2ccc(-c3c(F)cnc4[nH]c5cnc(-c6cccnc6)cc5c34)cc2)C1`
6.00 to 7.00

Subsequent entry: `COCc1cccc2[nH]c(-c3n[nH]c4ncc(-c5cn(S(=O)(=O)c6ccccc6)c6ccccc56)cc34)nc12`
< 5.00

Subsequent entry: `c1ccc(Nc2nc(OCC3CCCCC3)c3cn[nH]c3n2)cc1`
< 4.00

---
Give recorded pIC50 with Cyclin-dependent kinase 1 (Homo sapiens, UniProt P06493) for the following molecule: `NCCNC(=O)c1ccc(-c2c(F)cnc3[nH]c4cnc(-c5cccnc5)cc4c23)cc1`
6.00 to 7.00

Subsequent entry: CCN1CCCC(NC(=O)c2ccc(-c3c(F)cnc4[nH]c5cnc(-c6cccnc6)cc5c34)cc2)C1 (stereo not drawn)
6.00 to 7.00

Subsequent entry: `O=C(NCCNc1ccccc1)c1ccc(-c2c(F)cnc3[nH]c4cnc(-c5cccnc5)cc4c23)cc1`
6.00 to 7.00

Subsequent entry: `CCc1c(N[C@H]2CC[C@H](N)CC2)nc2ccnn2c1Nc1ccccc1C`
> 4.00

Subsequent entry: `O=C(NCCCN1CCCC1)c1ccc(-c2c(F)cnc3[nH]c4cnc(-c5cccnc5)cc4c23)cc1`
6.00 to 7.00

Subsequent entry: `CCc1c(N[C@H]2CC[C@H](N)CC2)nc2ccnn2c1Nc1ccccc1Cl`
> 4.00

Subsequent entry: `CCOc1ccc(Nc2c(CC)c(N[C@H]3CC[C@H](N)CC3)nc3ccnn23)cc1`
> 4.00
